Test system: Mus musculus
assay: Anticonvulsant activity in albino CF1 mouse assessed as protection against maximal electroshock-induced seizures at 300 mg/kg, ip after 0.5 hrs
Format: functional, organism-based
Design: dose 300 mg/kg
Active and inactive are the calls of the source. The calls are words filed in the database; no cut-off is given here.
Output constraint: value belongs to y (active), n (inactive)

Worked examples, 4 compounds total:
{"compound": "CCCC(COC(N)=O)C(C)C (racemic)", "label.value": "y"}
{"compound": "CC(C)C(C)COC(N)=O (racemic)", "label.value": "y"}
{"compound": "CCC(C)CCOC(N)=O (racemic)", "label.value": "y"}
{"compound": "CCCC(CCC)COC(N)=O", "label.value": "y"}

(Q) For this compound, state the assay outcome: CCC(COC(N)=O)C(C)C (racemic)
(A) y

(Q) For this compound, state the assay outcome: CC(C)(C)COC(N)=O
(A) n
